Listed below: pIC50 values for each entry.
System: M. tuberculosis H37Rv growth inhibition with meropenem
procedure text: dose response, H37Rv, with and without meropenem (AID 434987);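 note: growth over 7 days at 37 °C before Alamar Blue read on day 9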
condition label: M. tuberculosis H37Rv growth inhibition; measured here: IC50 without meropenem
Just so you know, pIC50 here is -log10 of the concentration in molar units; reply with that number alone.

// solved cases for pIC50 follow
O=C(N/N=C/c1cc([N+](=O)[O-])ccc1O)C1CC1 :: 4.23
O=C(Nc1ccccc1N1CCCC1)c1ccc2c(c1)OCO2 :: 4.06
O=C(NCCC1=CCCCC1)c1ccc(Cl)c([N+](=O)[O-])c1 :: 4.27
CSc1ccccc1C(=O)Nc1ccc2c(c1)OCCO2 :: 4.09
COC(=O)c1sc(-c2ccc(Cl)cc2)cc1NC(=O)COCC(=O)O :: 4.40

Prompt: Please list pIC50 recorded for the compound O=c1c2cc(Cl)ccc2[nH]c(=S)n1Cc1cccs1
Response: 4.69
